Read-out: Vascular cell adhesion molecule 1 (VCAM1), VCAM1 (gene 7412)
testDescription: BSK_LPS_VCAM1: BioMAP Diversity Plus: LPS Assay for Vascular cell adhesion molecule 1 (VCAM1) Biomarker Activity (AID 2283086)
appliedConditions: primary human HUVEC with PBMC; actives raise or lower the signal
Activity calls are given as the source filed them. The calls were made as follows: active = hit-call score of the fitted dose curve at least 0.9, where 1 is the maximum; inactive = score below 0.9.
Possible outcomes: active, inactive

>>> assignedclass("NC(=O)C(F)(F)C(F)(F)C(F)(F)C(F)(F)C(N)=O")
"inactive"
>>> assignedclass("NC(=O)C(F)(F)C(F)(F)C(F)(F)C(F)(F)C(F)(F)C(F)(F)C(F)(F)F")
"inactive"
>>> assignedclass("OCC(O)CC(F)(F)C(F)(F)C(F)(F)C(F)(F)C(F)(F)C(F)(F)C(F)(F)C(F)(F)F (stereo unspecified)")
"inactive"
>>> assignedclass("O=C(O)C(F)(F)OC(F)(F)C(F)(F)OC(F)(F)C(F)(F)OC(F)(F)F")
"inactive"
>>> assignedclass("O=C(Cl)C(F)(F)C(F)(F)C(F)(F)C(F)(F)C(F)(F)C(F)(F)F")
"inactive"
>>> assignedclass("COC(F)(C(F)F)C(F)(F)F (stereo unspecified)")
"inactive"
>>> assignedclass("Cc1ccc(O)c(-n2nc3ccccc3n2)c1")
"inactive"
>>> assignedclass("Brc1nc2ccccc2s1")
"inactive"
>>> assignedclass("CC(C)CCCC(C)CCO (stereo unspecified)")
"inactive"
>>> assignedclass("Cc1ccc(S(=O)(=O)C(I)I)cc1")
"active"
>>> assignedclass("NC(=O)C(F)(F)C(F)(F)C(F)(F)F")
"inactive"
>>> assignedclass("FC(F)(F)C(F)(F)C(F)(F)C(F)(F)C(F)(F)C(F)(F)C(F)(F)CCI")
"inactive"
>>> assignedclass("O=C(O)C(F)(F)C(F)(F)C(F)(F)OC(F)(F)F")
"inactive"
>>> assignedclass("CC1=CC2C3C=CC(C3)C2C1C (stereo unspecified)")
"inactive"
>>> assignedclass("CCN(CC)c1ccc2c(c1)Oc1cc(N(CC)CC)ccc1C21OC(=O)c2ccccc21")
"inactive"
>>> assignedclass("Cc1cc(C)c(O)c(C(C)(C)C)c1")
"active"
>>> assignedclass("CO[Si](C)(CCC(F)(F)C(F)(F)C(F)(F)C(F)(F)C(F)(F)C(F)(F)F)OC")
"inactive"
>>> assignedclass("CCN(CC)c1ccc(C=O)c(O)c1")
"inactive"
>>> assignedclass("O=C(O)C(F)(F)C(F)(F)C(F)(F)C(=O)O")
"inactive"
>>> assignedclass("Nc1cc([N+](=O)[O-])cc(Cl)c1O")
"inactive"
>>> assignedclass("CC(C)(C)c1cc(CCC(=O)NCCCCCCNC(=O)CCc2cc(C(C)(C)C)c(O)c(C(C)(C)C)c2)cc(C(C)(C)C)c1O")
"inactive"

---

testTarget: Hepatocyte nuclear factor 6 (Homo sapiens)
testDescription: ATG_HNF6_CIS: Attagene CIS-FACTORIAL HepG2 Assay for human Hepatocyte Nuclear Factor 6 (HNF6) (AID 2282952)
appliedConditions: HepG2 Attagene cis-factorial HNF6 reporter transcription; actives raise or lower the signal
Activity calls are given as the source filed them. The calls were made as follows: active = hit-call score of the fitted dose curve at least 0.9, where 1 is the maximum; inactive = score below 0.9.
Possible outcomes: active, inactive

>>> assignedclass("CC(O)C#CC(C)O (centres undefined)")
"active"
>>> assignedclass("OCCC(O)CO (centres undefined)")
"inactive"
>>> assignedclass("C[Si](C)O[Si](C)C")
"inactive"
>>> assignedclass("CC(=O)CCC(C)C")
"inactive"
>>> assignedclass("CCOC(=O)CC(=O)C(F)(F)C(F)(F)F")
"inactive"
>>> assignedclass("FC(F)(F)C(F)(F)C(F)(F)C(F)(F)C(F)(F)C(F)(F)CC[Si](Cl)(Cl)Cl")
"inactive"
>>> assignedclass("O=S(=O)(Cl)C(F)(F)C(F)(F)C(F)(F)C(F)(F)C(F)(F)C(F)(F)C(F)(F)C(F)(F)F")
"inactive"
>>> assignedclass("O=S(=O)(O)c1ccc(Cl)cc1")
"inactive"
>>> assignedclass("CCOCN(C(=O)CS(=O)(=O)O)c1c(C)cccc1CC")
"inactive"

---

testDescription: ATG_CMV_CIS: Attagene CIS-FACTORIAL HepG2 Assay for human CMV (Internal Marker) (AID 2282928);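 also: endpoint acts as a background internal control marker rather than a target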
appliedConditions: HepG2 CMV promoter reporter, transcription factor profiling; actives raise or lower the signal
Method: ATG_CIS is a cell-based, multiplexed-readout assay that uses HepG2, a human liver cell line, with measurements taken at 24 hours after chemical dosing in a 24-well plate.ATG_CMV_CIS is one of 52 assay component(s) measured or calculated from the ATG_CIS assay. […] This assay endpoint, ATG_CMV_CIS, was analyzed with bidirectional fitting relative to DMSO as the negative control and baseline of activity. […]
Active and inactive are the calls of the source. The calls were made as follows: active = hit-call score of the fitted dose curve at least 0.9, where 1 is the maximum; inactive = score below 0.9.
Possible outcomes: active, inactive

>>> assignedclass("OCCCc1cccnc1")
"inactive"
>>> assignedclass("O=C(c1ccccc1)c1ccc(O)cc1O")
"active"
>>> assignedclass("Brc1nc2ccccc2s1")
"inactive"
>>> assignedclass("OC(O)C(F)(F)C(F)(F)F")
"active"
>>> assignedclass("Oc1ccc2c(c1)CCC2")
"inactive"
>>> assignedclass("Cc1ccc(S(=O)(=O)C(I)I)cc1")
"inactive"
>>> assignedclass("CC(C)(C)c1cc(CCC(=O)OCC(COC(=O)CCc2cc(C(C)(C)C)c(O)c(C(C)(C)C)c2)(COC(=O)CCc2cc(C(C)(C)C)c(O)c(C(C)(C)C)c2)COC(=O)CCc2cc(C(C)(C)C)c(O)c(C(C)(C)C)c2)cc(C(C)(C)C)c1O")
"inactive"
>>> assignedclass("CCCCCCCC/C=C\\CCCCCCCC(=O)OCC(O)CO (configuration not stated)")
"inactive"
>>> assignedclass("OCCCCl")
"inactive"
>>> assignedclass("NC(=O)C(F)(F)C(F)(F)C(F)(F)F")
"inactive"
>>> assignedclass("Nc1cccnc1N")
"inactive"
>>> assignedclass("CC1=CC2C3C=CC(C3)C2C1C (configuration not stated)")
"inactive"
>>> assignedclass("CC(C)OC=O")
"inactive"
>>> assignedclass("COCCOCCC[Si](C)(O[Si](C)(C)C)O[Si](C)(C)C")
"inactive"
>>> assignedclass("O=S(=O)(O)CCC(F)(F)C(F)(F)C(F)(F)C(F)(F)F")
"inactive"
>>> assignedclass("C=CC(=O)OCCC(F)(F)C(F)(F)C(F)(F)C(F)(F)F")
"inactive"
>>> assignedclass("NC(=O)C(F)(F)C(F)(F)C(F)(F)C(F)(F)C(N)=O")
"inactive"
>>> assignedclass("O=S(=O)(O)CCC(F)(F)C(F)(F)C(F)(F)C(F)(F)C(F)(F)C(F)(F)C(F)(F)C(F)(F)F")
"inactive"
>>> assignedclass("CCC(=O)OC(C)c1ccccc1 (configuration not stated)")
"inactive"
>>> assignedclass("Cc1cccc(C)n1")
"inactive"
>>> assignedclass("CCOC(C=C(C)CCC=C(C)C)OCC")
"inactive"
>>> assignedclass("CSc1ccc(Cl)cc1")
"inactive"

---

Read-out: Collagen III, COL3A1 (gene 1281)
testDescription: BSK_MyoF_CollagenIII: BioMAP Diversity Plus: MyoF Assay for Collagen III Biomarker Activity (AID 2284239)
appliedConditions: primary human lung fibroblasts
Active and inactive are the calls of the source. Rule for the calls: active = hit-call score of the fitted dose curve at least 0.9, where 1 is the maximum; inactive = score below 0.9.
metric: AC50

>>> endpointresult("Cc1ccc(S(=O)(=O)C(I)I)cc1")
"10.5 µM (active)"
>>> endpointresult("C[C@]12CC[C@H]3C(=CCc4cc(O)ccc43)[C@@H]1CCC2=O")
"inactive"
>>> endpointresult("FC(F)(F)C(F)(F)C(F)(F)CC1CO1 (centres undefined)")
"inactive"
>>> endpointresult("O=C(Cl)C(F)(F)C(F)(F)C(F)(F)C(F)(F)C(F)(F)C(F)(F)F")
"inactive"

---

Read-out: urokinase plasminogen activator (uPA), PLAU (gene 5328)
testDescription: BSK_KF3CT_uPA: BioMAP Diversity Plus: KF3CT Assay for urokinase plasminogen activator (uPA) Biomarker Activity (AID 2283075)
appliedConditions: primary human keratinocytes with fibroblasts; actives raise or lower the signal
Calls of active or inactive are those of the source. How the source made its calls: active means hit-call score of the fitted dose curve at least 0.9, where 1 is the maximum; inactive means score below 0.9.
Possible outcomes: label 1 for active, label 0 for inactive

>>> assignedclass("Cc1cc(C)c(O)c(C(C)(C)C)c1")
"label 1"
>>> assignedclass("CNS(=O)(=O)C(F)(F)C(F)(F)C(F)(F)C(F)(F)C(F)(F)C(F)(F)C(F)(F)C(F)(F)F")
"label 0"
>>> assignedclass("O=S(=O)(O)CCC(F)(F)C(F)(F)C(F)(F)C(F)(F)F")
"label 0"
>>> assignedclass("NC(=O)C(F)(F)C(F)(F)C(F)(F)C(F)F")
"label 0"
>>> assignedclass("CC(C)(C)c1cc(CCC(=O)NCCCCCCNC(=O)CCc2cc(C(C)(C)C)c(O)c(C(C)(C)C)c2)cc(C(C)(C)C)c1O")
"label 0"
>>> assignedclass("C[Si](Cl)(Cl)CCC(F)(F)C(F)(F)C(F)(F)C(F)(F)C(F)(F)C(F)(F)F")
"label 0"
>>> assignedclass("Nc1cc([N+](=O)[O-])cc(Cl)c1O")
"label 0"
>>> assignedclass("CO[Si](C)(CCC(F)(F)C(F)(F)C(F)(F)C(F)(F)C(F)(F)C(F)(F)F)OC")
"label 0"
